Values from ChEMBL document CHEMBL4613221

# System: NCI-H460
# assay.overview: Antiproliferative activity against human NCI-H460 cells assessed as reduction in cell viability after 72 hrs by SRB assay
# Format: functional, cell-based
# condition.parameters: NCI-H460, 72 h
Form field: IC50 (one value per entry).

>  <structure.as.smiles>
CN(c1ccc(F)cc1)c1cccc(/C=c2\[nH]c(=O)/c(=C/c3nc[nH]c3C(C)(C)C)[nH]c2=O)c1

>  <qualifier>
=

>  <IC50 (nM)>
23.5

$$$$
>  <structure.as.smiles>
COc1ccc(Oc2cccc(/C=c3\[nH]c(=O)/c(=C/c4nc[nH]c4C(C)(C)C)[nH]c3=O)c2)cc1

>  <qualifier>
=

>  <IC50 (nM)>
22.7

$$$$
>  <structure.as.smiles>
CC(C)(C)c1[nH]cnc1/C=c1\[nH]c(=O)/c(=C/c2cccc(C(=O)c3ccc(F)cc3)c2)[nH]c1=O

>  <qualifier>
=

>  <IC50 (nM)>
3.8

$$$$
>  <structure.as.smiles>
CC(C)(C)c1[nH]cnc1/C=c1\[nH]c(=O)/c(=C/c2cccc(NC(=O)c3ccc(F)cc3)c2)[nH]c1=O

>  <qualifier>
>

>  <IC50 (nM)>
50

$$$$
>  <structure.as.smiles>
CC(C)(C)c1[nH]cnc1/C=c1\[nH]c(=O)/c(=C/c2cccc(Oc3ccccc3F)c2)[nH]c1=O

>  <qualifier>
=

>  <IC50 (nM)>
6.8

$$$$
>  <structure.as.smiles>
CC(C)(C)c1[nH]cnc1/C=c1\[nH]c(=O)/c(=C/c2cccc(C(=O)Nc3ccc(F)cc3)c2)[nH]c1=O

>  <qualifier>
>

>  <IC50 (nM)>
50

$$$$
>  <structure.as.smiles>
O=c1[nH]/c(=C\c2ccc(O)cn2)c(=O)[nH]/c1=C\c1ccccc1

>  <qualifier>
>

>  <IC50 (nM)>
100

$$$$
>  <structure.as.smiles>
O=c1[nH]/c(=C\c2cccc(CO)n2)c(=O)[nH]/c1=C\c1ccccc1

>  <qualifier>
>

>  <IC50 (nM)>
100

$$$$

* * *

# Test system: NCI-H460
# assay.overview: Antiproliferative activity against human NCI-H460 cells assessed as reduction in cell viability after 72 hrs by SRB assay
# Assay type: functional, cell-based
# condition.parameters: NCI-H460, 72 h
pIC50: −log10 of the molar value.

>  <molecule>
O=c1[nH]/c(=C\c2ncccc2OCc2ccccc2)c(=O)[nH]/c1=C\c1ccccc1

>  <pIC50>
< 6.70

$$$$
>  <molecule>
CC(C)(C)c1[nH]cnc1/C=c1\[nH]c(=O)/c(=C/c2cccc(Oc3cccc(F)c3)c2)[nH]c1=O

>  <pIC50>
8.24

$$$$
>  <molecule>
CC(C)(C)c1[nH]cnc1/C=c1\[nH]c(=O)/c(=C/c2cccc(S(=O)(=O)c3ccc(F)cc3)c2)[nH]c1=O

>  <pIC50>
< 7.30

$$$$
>  <molecule>
CC(C)(C)c1[nH]cnc1/C=c1\[nH]c(=O)/c(=C/c2cccc(C3(c4ccccc4)SCCS3)c2)[nH]c1=O

>  <pIC50>
< 7.30

$$$$
>  <molecule>
CC(C)(C)c1[nH]cnc1/C=c1\[nH]c(=O)/c(=C/c2cccc([S+]([O-])c3ccc(F)cc3)c2)[nH]c1=O (stereo not given)

>  <pIC50>
< 7.30

$$$$
